- experimental target: JAK3 enzyme (Homo sapiens, UniProt P52333)
- Sequence (P52333 whole entry, species assumed): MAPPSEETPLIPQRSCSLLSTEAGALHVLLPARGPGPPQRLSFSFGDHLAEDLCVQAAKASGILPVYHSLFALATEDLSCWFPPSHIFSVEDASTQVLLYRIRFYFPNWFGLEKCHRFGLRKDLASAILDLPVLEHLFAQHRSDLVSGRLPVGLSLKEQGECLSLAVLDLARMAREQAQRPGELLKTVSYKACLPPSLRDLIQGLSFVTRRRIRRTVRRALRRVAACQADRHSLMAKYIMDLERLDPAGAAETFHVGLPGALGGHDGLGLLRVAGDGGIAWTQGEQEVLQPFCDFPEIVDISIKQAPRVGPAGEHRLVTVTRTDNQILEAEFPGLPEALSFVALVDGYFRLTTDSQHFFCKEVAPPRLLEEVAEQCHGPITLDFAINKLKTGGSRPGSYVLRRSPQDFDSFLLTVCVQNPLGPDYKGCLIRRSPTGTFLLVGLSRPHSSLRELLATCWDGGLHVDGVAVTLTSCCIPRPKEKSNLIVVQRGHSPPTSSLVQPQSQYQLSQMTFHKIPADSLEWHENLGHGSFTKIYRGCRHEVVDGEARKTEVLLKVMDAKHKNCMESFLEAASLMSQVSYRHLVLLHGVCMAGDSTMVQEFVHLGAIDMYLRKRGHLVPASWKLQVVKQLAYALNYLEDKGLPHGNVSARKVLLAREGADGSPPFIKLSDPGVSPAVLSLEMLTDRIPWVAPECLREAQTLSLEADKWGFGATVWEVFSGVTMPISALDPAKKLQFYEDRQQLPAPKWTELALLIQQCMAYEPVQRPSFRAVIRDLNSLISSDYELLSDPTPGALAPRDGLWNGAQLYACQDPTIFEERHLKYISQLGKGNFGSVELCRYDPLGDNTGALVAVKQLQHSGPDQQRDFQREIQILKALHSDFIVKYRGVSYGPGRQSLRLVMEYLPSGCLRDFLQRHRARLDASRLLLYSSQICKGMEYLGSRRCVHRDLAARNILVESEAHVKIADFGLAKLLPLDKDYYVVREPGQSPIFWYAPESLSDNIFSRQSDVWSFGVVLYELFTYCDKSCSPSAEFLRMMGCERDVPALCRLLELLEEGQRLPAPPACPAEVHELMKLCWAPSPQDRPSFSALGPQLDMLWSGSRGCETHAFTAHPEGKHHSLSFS
- assay protocol: JAK Caliper Enzyme Assay at 1 mM ATP
- Type: biochemical
result type: IC50 (nM)

Observe how each entry below is paired with its result.
> print(dat)
                                   molecule  reported.result
1  C=CC(=O)N1CCC(Nc2cnc3[nH]cc(C(=O)NCCc4nc5ccc(F)c(F)c5o4)c3n2)CC1              165
2  C=CC(=O)N1CCN(c2cnc3[nH]cc(C(=O)N[C@@H](CC)COC)c3n2)CC1(C)C              168
3  C=CC(=O)N1CCC(Oc2cnc3[nH]cc(-c4nnco4)c3n2)CC1              787
4  C=CC(=O)N1CCN(c2cnc3[nH]cc(C(=O)N[C@H](C)CC#N)c3n2)CC1(C)C              256

A. C=CC(=O)N1CCC(Nc2cnc3[nH]cc(C(=O)NCc4ccc(OC)cc4)c3n2)CC1
B. C=CC(=O)N(C)C1CN(c2cnc3[nH]cc(C(=O)NCCOC)c3n2)C1
C. C=CC(=O)N1CC[C@@H](Oc2cnc3[nH]cc(C(=O)N[C@@H](C)COC)c3n2)C[C@@H]1C (racemic) [Example 71]
Data request: Arrange the 3 entries by IC50 so the values rise. Your answer should be the labels, listed in the requested order.
Data returned: A, C, B

---

- experimental target: UniProt:P52333
- assay protocol: JAK Caliper Enzyme Assay at 4 μM ATP
- Type: biochemical
result type: IC50 (nM)

Observe how each entry below is paired with its result.
> print(dat)
                            smiles.notation  result.type  reported.result
1  C=CC(=O)N1CCN(c2cnc3[nH]cc(C(=O)N[C@H]4CCOC4)c3n2)CC1(C)C         IC50             8.09
2  C=CC(=O)N1CCC(Oc2cnc3[nH]cc(C(=O)NCC(C)(C)C)c3n2)CC1         IC50              4.4

A. C=CC(=O)N1CCN(c2cnc3[nH]cc(C(=O)N[C@H](C)COC)c3n2)CC1
B. C=CC(=O)N1C[C@H](Nc2cnc3[nH]cc(C(=O)NCC)c3n2)C[C@H]1COCC
Data request: Compare A and B by numeric IC50 and name the larger one. Selection: enter the item's label.
Data returned: B
(B: 4.31 nM, A: 0.262 nM)

---

- experimental target: UniProtKB P52333
- assay protocol: JAK Caliper Enzyme Assay at 4 μM ATP
- Format: biochemical
pIC50: −log10 of the molar value.
result type: pIC50

Observe how each entry below is paired with its result.
> print(dat)
                                   molecule  reported.result
1  C=CC(=O)N1CC[C@@H](CNc2cnc3[nH]cc(C(=O)N[C@H](C)COC)c3n2)C1 (single isomer, unassigned)             8.27
2  C=CC(=O)N1CC(Nc2cnc3[nH]cc(C(=O)NCC)c3n2)C2(CC2)C1 (stereo not shown)             7.08

A. C=CC(=O)N1CCN(c2cnc3[nH]cc(C(=O)N[C@H](C)CC#N)c3n2)CC1(C)C
B. C=CC(=O)N1CCC(N(C)c2cnc3[nH]cc(C(=O)NCC)c3n2)C1 (racemic)
Data request: Compare A and B by numeric pIC50 and name the larger one. Selection: enter the item's label.
Data returned: A
(A: 8.70, B: 7.86)
